molecular target: UniProt Q8I566; assay: IC50 for competition of protein binding to Kinobeads; details: assay detail: Kinobeads competition in P. falciparum blood-stage lysate;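 further: native unpurified kinases from lysate captured on beads bearing immobilized kinase inhibitors, with bead-bound kinases quantified by mass spectrometry across compound doses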
Sequence (Q8I566 whole entry): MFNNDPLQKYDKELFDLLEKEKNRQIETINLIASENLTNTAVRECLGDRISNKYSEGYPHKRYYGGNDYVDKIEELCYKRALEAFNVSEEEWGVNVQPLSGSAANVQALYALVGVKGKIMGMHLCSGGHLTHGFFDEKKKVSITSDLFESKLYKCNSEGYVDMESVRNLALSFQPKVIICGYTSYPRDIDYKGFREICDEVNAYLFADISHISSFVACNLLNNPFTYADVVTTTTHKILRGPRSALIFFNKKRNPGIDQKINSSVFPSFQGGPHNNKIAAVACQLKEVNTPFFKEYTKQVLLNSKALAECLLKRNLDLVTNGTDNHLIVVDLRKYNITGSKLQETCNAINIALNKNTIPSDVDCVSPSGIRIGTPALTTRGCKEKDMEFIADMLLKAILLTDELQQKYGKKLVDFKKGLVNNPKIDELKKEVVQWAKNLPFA
pIC50: −log10 of the molar value.
MEASURED PARAMETER: pIC50

molecule O=c1[nH]c2ccc(Cl)cc2c(NC2CN3CCC2CC3)c1-c1nc2ccccc2[nH]1 (stereo unspecified) [CHIR-124] , pIC50 observed: < 4.70

====

biological target: UniProt Q8IFM9; assay: IC50 for competition of protein binding to Kinobeads; details: assay detail: Kinobeads competition in P. falciparum blood-stage lysate
MEASURED PARAMETER: IC50

compound O=c1[nH]c2ccc(Cl)cc2c(NC2CN3CCC2CC3)c1-c1nc2ccccc2[nH]1 (stereo unspecified) , IC50 observed: > 20 µM
